B1: T154V, Q93D82 (parent)
chain: MSTAIVTNVKHFGGMGSALRLSEAGHTVACHDESFKQKDELEAFAETYPQLKPMSEQEPAELIEAVTSAYGQVDVLVSNDIFAPEFQPIDKYAVEDYRGAVEALQIRPFALVNAVASQMKKRKSGHIIFITSATPFGPWKELSTYTSARAGACTLANALSKELGEYNIPVFAIGPNYLHSEDSPYFYPTEPWKTNPEHVAHVKKVTALQRLGTQKELGELVAFLASGSCDYLTGQVFWLAGGFPMIERWPGMPE

# Variants of: B1
# CONDITION LABEL: Rhizobium radiobacter; pH 7.7; Thermal; CD; Phosphate 5mM; structure 1PWX; whole UniProt chain shown
Give change of melting temperature, mutant - wild type (higher = more stable) for every item shown.
I only need the number, in °C, no unit after it.

Documented change of melting temperature, mutant - wild type (higher = more stable) of T154V : -3

Documented change of melting temperature, mutant - wild type (higher = more stable) of Y70F : 0.5

Documented change of melting temperature, mutant - wild type (higher = more stable) of A83M : 0.5

Documented change of melting temperature, mutant - wild type (higher = more stable) of S68R : 1.5

Documented change of melting temperature, mutant - wild type (higher = more stable) of S228K : -0.5

Documented change of melting temperature, mutant - wild type (higher = more stable) of E197K : 2.5

Documented change of melting temperature, mutant - wild type (higher = more stable) of A60R : 1.5

Documented change of melting temperature, mutant - wild type (higher = more stable) of A93T : 4.5

Documented change of melting temperature, mutant - wild type (higher = more stable) of V205L : -1.5

Documented change of melting temperature, mutant - wild type (higher = more stable) of S17A : 0

Documented change of melting temperature, mutant - wild type (higher = more stable) of T47H : -1.5
